Task for the reader: assign each of the following binders its reported Kd.
biological target: Human CD3εδ-Fc (human) (UniProt P04234); assay: Biacore SPR, monovalent KD, biotinylated human CD3εδ-Fc
Sequence (chain, as listed by the source mutant, chain 1 of 2): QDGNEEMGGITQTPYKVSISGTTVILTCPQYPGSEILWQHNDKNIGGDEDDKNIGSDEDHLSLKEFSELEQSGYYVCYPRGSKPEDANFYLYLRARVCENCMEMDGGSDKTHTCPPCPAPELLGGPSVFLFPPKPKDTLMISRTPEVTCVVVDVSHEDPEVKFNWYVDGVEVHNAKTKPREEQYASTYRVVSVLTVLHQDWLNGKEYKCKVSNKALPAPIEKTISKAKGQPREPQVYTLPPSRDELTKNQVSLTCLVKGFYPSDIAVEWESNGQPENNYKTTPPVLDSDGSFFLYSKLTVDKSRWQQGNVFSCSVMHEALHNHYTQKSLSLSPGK
Sequence (P04234 22-105, stated change not applied, chain 2 of 2): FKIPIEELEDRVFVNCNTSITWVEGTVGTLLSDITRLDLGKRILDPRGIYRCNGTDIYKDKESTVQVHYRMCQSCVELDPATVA

Query string: Looking for the measured Kd of ADI-45959 (antibody, V domains shown, also called Ab13) VH: QVQLVQSGAEVKKPGASVKVSCKASGFNIKDYYMHWVRQAPGQRLEWIGWIDLENANTVYDAKFQGRVTITRDTSASTAYMELSSLRSEDTAVYYCARDAYGRYFYDVWGQGTLVTVSS VL: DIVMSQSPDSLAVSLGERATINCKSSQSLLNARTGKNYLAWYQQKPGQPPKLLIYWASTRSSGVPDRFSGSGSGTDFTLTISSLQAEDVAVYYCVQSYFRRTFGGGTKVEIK , can you help?
Result string: 0.12 nM

Query string: Looking for the measured Kd of ADI-46359 (antibody, V domains shown, also called Ab42) VH: QVQLVQSGAEVKKPGASVKVSCKASGFNIKDYYMHWVRQAPGQRLEWIGWIDLENANTVYDAKFQGRVTITRDTSASTAYMELSSLRSEDTAVYYCARDAYGQYFYDVWGQGTLVTVSS VL: DIVMTQSPDSLAVSLGERATINCKSSQSLLNARTGKNYLAWYQQKPGQPPKLLIYWASTRESGVPDRFSGSGSGTDFTLTISSLQAEDVAVYYCTQSYFRRTFGGGTKVEIK , can you help?
Result string: 0.22 nM

Query string: Looking for the measured Kd of ADI-46357 (antibody, V domains shown, also called Ab30) VH: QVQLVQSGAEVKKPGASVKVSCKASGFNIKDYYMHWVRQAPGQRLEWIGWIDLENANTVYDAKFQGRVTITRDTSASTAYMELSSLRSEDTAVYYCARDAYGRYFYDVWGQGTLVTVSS VL: DIVMTQSPDSLAVSLGERATINCKSSQSLLNARTGKNYLAWYQQKPGQPPKLLIYWASTRESGVPDRFSGSGSGTDFTLTISSLQAEDVAVYYCAQSYFRRTFGGGTKVEIK , can you help?
Result string: 0.25 nM
